FYI, the data here is from patent US20260083721A1.

# Tested on: carbapenem-resistant Escherichia coli 18-W18-070
# EXPERIMENT: MIC by broth microdilution, carbapenem-resistant E. coli 18-W18-070
# Type: cell-based
# ASSAY CONTEXT: carbapenem-resistant clinical isolate, CAMHB, 35±2° C., 20 hours, drug concentration range 128 mg/L to 0.06 mg/L, read-out: inhibitory MIC value, Escherichia coli 18-W18-070
Record form. Attribute: MIC. Fill in for each entry.
Write the number in µg/mL without appending the unit.

Per the record, Cc1ccnc2c(O)c(C#N)ccc12 [Compound 3, 4-methyl-7-cyano-8-hydroxyquinoline] has MIC of 16

Per the record, Cc1cc(C#N)c(O)c2ncccc12 [Compound A, reference compound] has MIC of 16

Per the record, N#Cc1ccc2ccc(F)nc2c1O [Compound 4, 2-fluoro-7-cyano-8-hydroxyquinoline] has MIC of 16

Per the record, `N#Cc1cc(C(F)(F)F)c2cccnc2c1O` has MIC of 64

Per the record, N#Cc1cc(Cl)c2cccnc2c1O [Compound 9, 5-chloro-7-cyano-8-hydroxyquinoline] has MIC of 32

Per the record, N#Cc1cc(Br)c2cccnc2c1O [Compound 1, 5-bromo-7-cyano-8-hydroxyquinoline] has MIC of 32

Per the record, `Cc1ccnc2c(O)c(C#N)cc(Cl)c12` has MIC of 16

Per the record, `Cc1ccnc2c(O)c(C#N)cc(Br)c12` has MIC of 32
